# measured.on: Androgen receptor (Homo sapiens) (UniProt P10275)
# Sequence (P10275 whole entry, looked up): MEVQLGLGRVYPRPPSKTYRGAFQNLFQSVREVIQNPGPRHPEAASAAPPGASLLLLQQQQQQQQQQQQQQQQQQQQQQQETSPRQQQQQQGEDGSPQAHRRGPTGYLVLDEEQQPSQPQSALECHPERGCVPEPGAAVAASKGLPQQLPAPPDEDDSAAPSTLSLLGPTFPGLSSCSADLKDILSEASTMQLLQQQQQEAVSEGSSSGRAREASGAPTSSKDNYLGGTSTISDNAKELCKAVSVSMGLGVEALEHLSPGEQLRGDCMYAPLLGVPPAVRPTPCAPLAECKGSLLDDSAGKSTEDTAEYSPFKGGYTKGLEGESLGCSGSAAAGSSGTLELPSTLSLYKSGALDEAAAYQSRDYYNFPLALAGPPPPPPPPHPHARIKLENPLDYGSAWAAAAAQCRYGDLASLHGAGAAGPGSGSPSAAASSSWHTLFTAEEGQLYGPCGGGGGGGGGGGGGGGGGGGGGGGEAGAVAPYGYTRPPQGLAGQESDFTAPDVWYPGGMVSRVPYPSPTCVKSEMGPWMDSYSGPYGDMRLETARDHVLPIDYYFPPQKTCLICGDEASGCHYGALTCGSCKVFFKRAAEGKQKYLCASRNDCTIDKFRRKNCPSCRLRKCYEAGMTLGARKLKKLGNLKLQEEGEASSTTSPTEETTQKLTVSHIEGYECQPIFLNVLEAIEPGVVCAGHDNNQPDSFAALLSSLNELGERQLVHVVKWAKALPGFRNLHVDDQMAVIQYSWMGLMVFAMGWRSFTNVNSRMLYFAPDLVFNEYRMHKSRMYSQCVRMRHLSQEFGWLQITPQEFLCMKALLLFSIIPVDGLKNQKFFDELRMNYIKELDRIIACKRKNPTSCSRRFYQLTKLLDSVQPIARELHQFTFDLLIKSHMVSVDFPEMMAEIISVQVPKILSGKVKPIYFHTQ
# test.method.notes: qHTS assay to identify small molecule antagonists of the androgen receptor (AR) signaling pathway using the MDA cell line in the presence of 0.5 nM R1881 (AID 1259243); further: nearly all actives have a fitted effect of over 50% in size
# condition.description: MDA-kb2 MMTV-luciferase, R1881 0.5 nM, 16 h; series mostly up to 42.5 µM
Inconclusive results are not listed. Activity calls are given as the source filed them. The call rests on the fitted dose curve; in most records, active means well fitted inhibition curve with a large enough effect in the repeat runs; inconclusive means weak or mixed curves; inactive means no such curve, though single readings can be large or run the other way.
Mark one answer only. Choices: active, inactive

These recorded examples may help you get a feel for the data.
[
  {
    "molecule": "CCCC(=O)O[C@]1(C(=O)CCl)[C@@H](C)C[C@H]2[C@@H]3CCC4=CC(=O)C=C[C@]4(C)[C@@]3(F)C(=O)C[C@@]21C",
    "class.name": "inactive"
  },
  {
    "molecule": "CCCCCCOC(=O)c1ccccc1O",
    "class.name": "inactive"
  },
  {
    "molecule": "CCN1CCN(c2cc3c(cc2F)c(=O)c(C(=O)O)cn3C2CC2)CC1",
    "class.name": "inactive"
  }
]

## Task Per the assay record, what outcome was assigned to CC(C)c1ccc2oc3nc(N)c(C(=O)O)cc3c(=O)c2c1 ?
## Result inactive

## Task Note, next up: O=c1[nH]c2ccccc2c(=O)n1CCCl
## Result inactive

## Task // repeat for CN(C)CCn1nnnc1SCC1=C(C(=O)O)N2C(=O)[C@@H](NC(=O)Cc3csc(N)n3)[C@H]2SC1 and report
## Result inactive

## Task Lookup CCCCNc1ccccc1
## Result inactive

## Task Input O=C(CCOCCOCCOCCOCCC(=O)Nc1c(I)cc(I)c(C(=O)O)c1I)Nc1c(I)cc(I)c(C(=O)O)c1I
## Result inactive

## Task // query: NS(=O)(=O)c1cc2c(cc1C(F)(F)F)NC(Cc1ccccc1)NS2(=O)=O (stereo not given)
## Result inactive

## Task Same again, this time with C1CCCCCCCCCCC1
## Result inactive

## Task Also check CN1[C@@H]2CC[C@H]1CC(NC(=O)n1c(=O)[nH]c3ccccc31)C2 (stereo not given in full)
## Result inactive

## Task Let us now turn to CC(C)CCCC(C)NCCC(C)C (stereo not given)
## Result inactive

## Task Lookup O=c1[nH]c(=O)n([C@H]2O[C@H](CO)[C@@H](O)[C@@H]2O)cc1/C=C\Br
## Result inactive
